test system: HL-60(TB) leukemia; assay: NCI tumour cell line growth inhibition, 48 h
Cut-off 20 µM on TGI, inclusive. At or above means met; below means not met.

compound=CC1=C2C(=O)c3ccccc3C(=O)[C@H]2C[C@@H](N2CCCCCC2=O)O1 group_label=met
compound=Cn1cnc([N+](=O)[O-])c1Sc1nc(N)nc2nc[nH]c12 group_label=met
compound=Cn1c(=O)sc2cc(C(=S)N3CCOCC3)ccc21 group_label=met
compound="COc1ccc2cc(-c3c(-c4ccncc4)nc(-c4ccc(S(C)=O)cc4C)n3C)ccc2c1 (stereo not given)" group_label=met
compound=C1=C2CNCC3=Cc4ccc5ccccc5c4OC23Oc2c1ccc1ccccc21 group_label="not met"
compound=O=C(Nc1ccc(Cl)cc1)Nc1ccccc1CNc1nc(Nc2ccc(OCCN3CCCC3)cc2)ncc1Cl group_label="not met"
compound=CN(C)C(=O)SC1=C(c2c(Cl)cccc2Cl)C(=O)c2ccccc21 group_label="not met"
compound="O=[N+]([O-])C1C2C=CC(C2)[C@H]1c1ccc(Cl)cc1Cl (stereo not given in full)" group_label=met
compound=CC(=O)Nc1ccc(C(=O)N2N=C(C)/C(=C/c3ccc(O)cc3)C2=O)cc1 group_label=met
compound=CCc1cccc(CC)c1/C=C/c1cncc(C(=O)NC)c1 group_label=met
compound="OC(c1cc(-c2ccccc2)nc2c1ccc1ccccc12)C1CCCCN1 (stereo not given)" group_label="not met"
compound=Cc1n(Cc2ccc3ccccc3c2)c(Cl)c(Cl)[n+]1Cc1ccc2ccccc2c1 group_label="not met"
compound=Cc1ccc(-n2c3c(c4c(CN5CCOCC5)c(O)ccc42)CCc2ccccc2C3=O)cc1 group_label=met
compound=C/C(=N/O)c1ccc2c(c1)C(=NO)c1cc(/C(C)=N/O)ccc1-2 group_label=met
compound="CCCCCCOP(=O)(OCCCCCC)OC(C(=O)OC)C(F)(F)F (stereo not given)" group_label=met
compound=COc1ccc(CC2=NCCc3cc(OC)c(OC)cc32)cc1Br group_label=met
compound=Nc1ccn([C@@H]2C(F)=C(CO)[C@@H](O)[C@H]2O)c(=O)n1 group_label=met
compound=Nc1c(N=Nc2ccc(-c3ccc(N=Nc4c(O)ccc5cc(S(=O)(=O)O)cc(S(=O)(=O)O)c45)cc3)cc2)c(S(=O)(=O)O)cc2cc(S(=O)(=O)O)c(N=Nc3ccccc3)c(O)c12 group_label=met
compound=O=C1CSc2nnc(CCCCCCCCc3nnc4n3NC(=O)CS4)n2N1 group_label=met
